# Subject Of Test: urease (Canavalia ensiformis, UniProt P07374)
# Sequence (P07374 whole entry, looked up): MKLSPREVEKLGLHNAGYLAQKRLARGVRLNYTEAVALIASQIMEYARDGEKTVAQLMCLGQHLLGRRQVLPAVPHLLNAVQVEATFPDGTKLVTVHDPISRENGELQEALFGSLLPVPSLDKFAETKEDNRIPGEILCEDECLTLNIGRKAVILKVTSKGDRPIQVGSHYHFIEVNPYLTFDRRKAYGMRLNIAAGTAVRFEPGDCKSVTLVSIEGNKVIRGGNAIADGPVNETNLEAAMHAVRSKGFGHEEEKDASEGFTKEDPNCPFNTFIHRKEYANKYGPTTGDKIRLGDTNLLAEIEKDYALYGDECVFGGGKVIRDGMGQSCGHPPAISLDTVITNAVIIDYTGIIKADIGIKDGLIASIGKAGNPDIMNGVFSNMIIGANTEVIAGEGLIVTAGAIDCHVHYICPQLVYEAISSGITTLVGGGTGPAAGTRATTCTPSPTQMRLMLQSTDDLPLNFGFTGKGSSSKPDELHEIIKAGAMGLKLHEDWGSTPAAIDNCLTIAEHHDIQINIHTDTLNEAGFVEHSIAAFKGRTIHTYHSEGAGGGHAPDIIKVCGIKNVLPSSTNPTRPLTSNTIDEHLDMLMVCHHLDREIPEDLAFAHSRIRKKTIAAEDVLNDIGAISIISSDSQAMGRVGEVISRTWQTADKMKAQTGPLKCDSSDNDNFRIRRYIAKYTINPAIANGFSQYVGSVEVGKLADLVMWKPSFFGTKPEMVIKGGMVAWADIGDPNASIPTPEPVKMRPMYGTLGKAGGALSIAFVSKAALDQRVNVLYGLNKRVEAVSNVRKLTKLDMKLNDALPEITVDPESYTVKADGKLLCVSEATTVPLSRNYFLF
# Experiment Notes: Urease inhibition assay (customized Berthelot assay)
# Type: biochemical
# Protocol: This enzyme assay is the customized form of the commonly known Berthelot assay ([23], [24]). […] The contents were pre-incubated at 37 °C for 5 min. 40 µL of urea stock solution (20 mM) was added to each well with incubation for 10 min at 37 °C. […] The absorbance was measured at 625 nm. The percentage enzyme inhibition and IC50 values were calculated using the following formula: […]
Kindly apply the following: t if IC50 is less than 3 µM, f in every other case.

Q: Bench note: check whether Cc1ccc(C)c(NC(=O)CCSc2nnc(Cc3csc(N)n3)o2)c1 shows IC50 below 3 µM
A: f

Q: Subsequent entry: Nc1nc(Cc2nnc(SCCC(=O)Nc3ccccc3)o2)cs1
A: t

Q: Subsequent entry: Cc1ccc(NC(=O)CCSc2nnc(Cc3csc(N)n3)o2)cc1C
A: t

Q: Subsequent entry: CCc1ccc(NC(=O)CCSc2nnc(Cc3csc(N)n3)o2)cc1
A: t

Q: Subsequent entry: Cc1cc(C)cc(NC(=O)CCSc2nnc(Cc3csc(N)n3)o2)c1
A: f

Q: Subsequent entry: CCOc1ccc(NC(=O)CCSc2nnc(Cc3csc(N)n3)o2)cc1
A: t

Q: Subsequent entry: Cc1cccc(NC(=O)CCSc2nnc(Cc3csc(N)n3)o2)c1
A: t

Q: Subsequent entry: Cc1ccccc1NC(=O)CCSc1nnc(Cc2csc(N)n2)o1
A: t

Q: Subsequent entry: CCc1ccccc1NC(=O)CCSc1nnc(Cc2csc(N)n2)o1
A: t

Q: Subsequent entry: Cc1ccc(NC(=O)CCSc2nnc(Cc3csc(N)n3)o2)c(C)c1
A: t

Q: Subsequent entry: Cc1cccc(C)c1NC(=O)CCSc1nnc(Cc2csc(N)n2)o1
A: t

Q: Subsequent entry: Cc1ccc(NC(=O)CCSc2nnc(Cc3csc(N)n3)o2)cc1
A: t
